Numbers sourced from PubChem BioAssay (NCI).

assay: NCI Yeast Anticancer Drug Screen. Data for the rad14 strain (AID 159);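 note: 0% = growth of vehicle-treated control cultures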; conditions: S. cerevisiae rad14 strain growth inhibition; at 11.0 µM; active compounds read high
About 79,000 compounds went through this panel and 15% of them were active in at least one assay; those are over-represented in the sample as a whole.
List of growth inhibition values.
The answer is to be given in %; state only the numeric part.

- molecule: "O=[N+]([O-])O.[NH-]C1CCCCC1[NH-].[NH-]C1CCCCC1[NH-].[NH-]C1CCCCC1[NH-].[OH-].[OH-].[OH-].[Pt+4].[Pt+4].[Pt+4] (configuration not stated)"
  numeric result: -33
- molecule: "OC(c1ccc(Br)cc1)C(Cl)(Cl)Cl (configuration not stated)"
  numeric result: -7
- molecule: "Cc1cccc(NC(=O)CBr)c1"
  numeric result: 99
- molecule: "O=S(=O)(O)c1ccc(Cl)cc1.[Cd]"
  numeric result: 48
- molecule: "COC(=O)C1=C(C(=O)OC)SC2(S1)C(C(=O)OC)=C(C(=O)OC)Sc1c2ssc1=O"
  numeric result: 80

(Q) State the recorded growth inhibition for this entry: CCN(CCCl)CCCCNc1c2ccccc2nc2ccc(OC)cc12
(A) 80

(Q) State the recorded growth inhibition for this entry: CC[PH+](CC)CC.CC[PH+](CC)CC.[Au]
(A) 34

(Q) State the recorded growth inhibition for this entry: Oc1cccnc1[Se]
(A) 5

(Q) State the recorded growth inhibition for this entry: COc1cc2ccccc2c2cc([N+](=O)[O-])oc12
(A) 95

(Q) State the recorded growth inhibition for this entry: C[CH2][Sn]([CH2]C)([O]S(C)(=O)=O)[O]S(C)(=O)=O
(A) -17

(Q) State the recorded growth inhibition for this entry: O=[N+]([O-])c1ccc(C=Cc2ccccc2)cc1.[C-]#[O+].[C-]#[O+].[C-]#[O+].[Cr]
(A) 53
